Values were extracted from paper PMC3983375.

// USP2 (Homo sapiens) pIC50 records
pIC50: −log10 of the molar value.

Record excerpt, results attached:
compound	val
C[C@H](c1cccc2ccccc12)N1CCC(C(=O)NCc2ccc3c(c2)OCO3)CC1 [15g, reference compound]	< 4.00
C[C@H](c1cccc2ccccc12)N1CCC(C(=O)NCc2cccc(F)c2)CC1	< 4.00

Now, please, on to the next compound.
# pIC50 lookup, item C[C@H](c1cccc2ccccc12)N1CCC(C(=O)NCc2ccc(F)cc2)CC1 < 4.00

====

Biological target: USP7 (Homo sapiens, UniProt Q93009)
Sequence (Q93009 whole entry): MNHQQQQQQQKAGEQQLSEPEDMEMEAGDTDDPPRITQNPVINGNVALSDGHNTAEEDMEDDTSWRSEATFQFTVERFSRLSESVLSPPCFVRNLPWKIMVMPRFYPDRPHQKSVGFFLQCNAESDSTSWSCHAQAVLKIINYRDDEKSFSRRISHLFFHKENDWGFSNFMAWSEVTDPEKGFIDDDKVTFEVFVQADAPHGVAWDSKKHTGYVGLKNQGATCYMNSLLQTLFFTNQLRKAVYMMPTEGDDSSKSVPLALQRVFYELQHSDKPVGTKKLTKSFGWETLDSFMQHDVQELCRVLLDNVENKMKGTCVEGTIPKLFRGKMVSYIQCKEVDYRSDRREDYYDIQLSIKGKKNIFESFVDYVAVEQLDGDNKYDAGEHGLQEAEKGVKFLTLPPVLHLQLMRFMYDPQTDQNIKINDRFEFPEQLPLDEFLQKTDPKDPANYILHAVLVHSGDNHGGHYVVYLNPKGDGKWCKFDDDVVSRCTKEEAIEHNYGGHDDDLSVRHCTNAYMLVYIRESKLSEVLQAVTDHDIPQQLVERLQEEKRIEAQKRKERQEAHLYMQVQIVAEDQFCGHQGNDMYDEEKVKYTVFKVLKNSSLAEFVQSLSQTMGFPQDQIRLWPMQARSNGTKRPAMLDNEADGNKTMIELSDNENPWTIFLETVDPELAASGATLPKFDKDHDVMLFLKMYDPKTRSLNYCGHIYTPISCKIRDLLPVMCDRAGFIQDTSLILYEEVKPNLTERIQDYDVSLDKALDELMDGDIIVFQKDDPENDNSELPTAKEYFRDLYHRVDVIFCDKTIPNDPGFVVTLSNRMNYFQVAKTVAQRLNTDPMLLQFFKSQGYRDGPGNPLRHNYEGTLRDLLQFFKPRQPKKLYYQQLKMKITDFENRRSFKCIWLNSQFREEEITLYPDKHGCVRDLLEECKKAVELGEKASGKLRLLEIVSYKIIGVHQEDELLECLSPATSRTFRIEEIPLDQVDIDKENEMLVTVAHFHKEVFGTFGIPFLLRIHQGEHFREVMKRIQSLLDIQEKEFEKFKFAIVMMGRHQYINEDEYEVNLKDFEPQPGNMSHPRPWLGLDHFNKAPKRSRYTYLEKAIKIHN
pIC50: −log10 of the molar value.
Each item that follows carries a reported pIC50.

Record excerpt, results attached:
compound	pIC50
C[C@H](c1cccc2ccccc12)N1CCC(C(=O)NCc2cccc(F)c2)CC1 [3k]	< 4.00
C[C@H](c1cccc2ccccc12)N1CCC(C(=O)NCc2ccc(F)cc2)CC1 [3j]	< 4.00

Now, please, on to the next compound.
# pIC50 lookup, item C[C@H](c1cccc2ccccc12)N1CCC(C(=O)NCc2ccc3c(c2)OCO3)CC1 [15g, reference compound] < 4.00
